target: BSA (Bos taurus); construct: purchased Millipore Sigma-Aldrich; assay: Far-UV CD secondary structure of BSA (CONTIN-LL deconvolution); type: physicochemical, bovine; set-up: unit not given here; settings: 1.0 mg/mL BSA, 55 mM component, 25 °C
Some compounds, each annotated with its measured Regular Alpha Helix.
Just the number, please, no unit attached.

Answered examples (2):
compound	Regular Alpha Helix
C[N+](C)(C)CCO.O=S(=O)([O-])C(F)(F)C(F)(F)C(F)(F)C(F)(F)F [[N1112(OH)][C4F9SO3]]	0.392
C[N+](C)(C)CCO.C[N+](C)(C)CCO.O=P([O-])(O)O.O=P([O-])(O)O [[N1112(OH)][H2PO4]]	0.242

Asked: Quote Regular Alpha Helix reported for CCCCn1cc[n+](C)c1.O=S(=O)([O-])C(F)(F)F [[C4C1Im][CF3SO3]] please.
Given back: 0.390

Asked: Quote Regular Alpha Helix reported for OC[C@H]1O[C@@](CO)(O[C@H]2O[C@H](CO)[C@@H](O)[C@H](O)[C@H]2O)[C@@H](O)[C@@H]1O please.
Given back: 0.412

Asked: Quote Regular Alpha Helix reported for CCn1cc[n+](C)c1.O=S(=O)([O-])C(F)(F)C(F)(F)C(F)(F)C(F)(F)F please.
Given back: 0.402

###

Some compounds, each annotated with its measured Turns.
target: BSA (Bos taurus, UniProt P02769); construct: purchased Millipore Sigma-Aldrich; assay: Far-UV CD secondary structure of BSA (CONTIN-LL deconvolution); type: physicochemical, bovine; parameters: unit not given here; details: 1.0 mg/mL BSA, 200 mM component, 25 °C
Sequence (P02769 25-607): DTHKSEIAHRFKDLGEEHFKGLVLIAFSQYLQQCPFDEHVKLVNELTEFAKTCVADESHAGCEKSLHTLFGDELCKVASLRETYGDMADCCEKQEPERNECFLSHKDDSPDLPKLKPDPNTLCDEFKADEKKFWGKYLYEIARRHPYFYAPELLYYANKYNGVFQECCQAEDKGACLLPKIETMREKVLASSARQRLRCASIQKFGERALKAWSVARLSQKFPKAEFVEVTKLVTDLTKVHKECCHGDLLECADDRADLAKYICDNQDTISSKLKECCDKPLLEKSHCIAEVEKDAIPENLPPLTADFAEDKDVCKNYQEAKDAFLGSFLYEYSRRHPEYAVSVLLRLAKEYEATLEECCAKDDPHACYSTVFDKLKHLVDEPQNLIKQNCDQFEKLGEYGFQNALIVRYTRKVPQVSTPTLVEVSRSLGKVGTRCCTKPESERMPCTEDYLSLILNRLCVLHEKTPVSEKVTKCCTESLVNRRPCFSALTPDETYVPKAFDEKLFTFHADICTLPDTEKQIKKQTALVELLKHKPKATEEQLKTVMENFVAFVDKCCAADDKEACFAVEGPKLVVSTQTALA
Just the number, please, no unit attached.

Answered examples (2):
compound	target system	numeric readout
OC[C@H]1O[C@@](CO)(O[C@H]2O[C@H](CO)[C@@H](O)[C@H](O)[C@H]2O)[C@@H](O)[C@@H]1O	BSA (Bos taurus, UniProt P02769)	0.136
C[N+](C)(C)CCO.O=S(=O)([O-])C(F)(F)C(F)(F)C(F)(F)C(F)(F)F [[N1112(OH)][C4F9SO3]]	BSA (Bos taurus, UniProt P02769)	0.147

Asked: Quote Turns reported for CCn1cc[n+](C)c1.O=S(=O)([O-])C(F)(F)C(F)(F)C(F)(F)C(F)(F)F please.
Given back: 0.108

Asked: Quote Turns reported for CCCCn1cc[n+](C)c1.O=S(=O)([O-])C(F)(F)F [[C4C1Im][CF3SO3]] please.
Given back: 0.136

Asked: Quote Turns reported for C[N+](C)(C)CCO.C[N+](C)(C)CCO.O=P([O-])(O)O.O=P([O-])(O)O [[N1112(OH)][H2PO4]] please.
Given back: 0.146

###

molecular target: FITC-IFN-α2b (Homo sapiens); construct: single non-glycosylated polypeptide chain with a molecular weight of 19 kDa, comprising 165 amino acids; purchased Millipore Sigma-Aldrich SRP4595-100UG; host or cells: E. coli; assay: MST binding to FITC-IFN-α2b; conditions: 0.41 μM IFN-α2b; max. conc. first capillary in 4th CAC range; 25 °C; read-out: Kd
Sequence (P01563 24-188): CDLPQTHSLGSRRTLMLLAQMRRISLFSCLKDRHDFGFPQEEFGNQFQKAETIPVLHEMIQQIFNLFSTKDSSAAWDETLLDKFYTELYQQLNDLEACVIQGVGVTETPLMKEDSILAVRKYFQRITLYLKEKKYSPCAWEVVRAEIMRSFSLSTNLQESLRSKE
measurement label: Kd (mM)
Form entry: value (mM) — number only.

Asked: Report Kd on FITC-IFN-α2b (Homo sapiens) for this entry: CCn1cc[n+](C)c1.O=S(=O)([O-])C(F)(F)C(F)(F)C(F)(F)C(F)(F)F
Given back: 6.28
